Values were extracted from patent US20040266857A1.

Test system: SW-480 human colon carcinoma cells
Assay: Cell proliferation (colony formation) assay, SW480
Assay type: cell-based
Conditions: cancer cell line SW480, 4 h exposure, colonies scored after 10-15 days, compounds added in micromolar concentrations
Protocol: Cell proliferation assays were performed as described previously (Müller et al., (1996) J. Med. Chem. 39: 3132-3138; Müller et al., (1994) J. Med. Chem. 37: 1660-1669). More specifically, exponentially growing cells were seeded at 1,000 cells per well in six-well plates and allowed to attach for 24 h. […] Control wells were treated with equivalent volumes of DMSO. After 4 h, the supernatant was removed and fresh medium was added. […] Colonies of greater than 30 cells were scored as survivors. […]
pIC50: −log10 of the molar value.
measure: pIC50

molecule | pIC50
CC1(C)CCC2=C(S1)c1ccccc1C(=O)C2=O [Compound 1] | 5.82
CC1OC2=C(C(=O)C(=O)c3ccccc32)C1(C)C (stereo not shown) [Dunnione, reference compound] | 5.55
CC1OC2=C(SC1C)c1ccccc1C(=O)C2=O (stereo not shown) [Compound 10] | 6.00

(A) CC1(C)CCC2=C(O1)c1ccccc1C(=O)C2=O [β-Lapachone, reference compound]
(B) CC1CSC2=C(O1)C(=O)C(=O)c1ccccc12 (stereo not shown) [Compound 9]
(C) CC1(C)CCC2=C(S1)C(=O)c1ccccc1C2=O [Compound 2]
(D) CC1SC2=C(C(=O)C(=O)c3ccccc32)C1(C)C (stereo not shown) [Compound 3]
Let's sort these by pIC50, smallest first. Go ahead? Labels, ranked as asked.
C, A, B, D

====

Tested on: NCM 460 normal colonic epithelial cells
Experiment: Cell proliferation (colony formation) assay, NCM460 normal cells
Assay type: cell-based
Settings: Homo sapiens; normal cell line NCM460; 4 h exposure, colonies scored after 10-15 days; compounds added in micromolar concentrations; read-out: Average IC50 Normal Cell Lines Colon NCM460
Each entry below carries its reported IC50.
Give the value, in units of µM, as a plain number.

compound | value unit | IC50
CC1OC2=C(C(=O)C(=O)c3ccccc32)C1(C)C (stereo not shown) [Dunnione, reference compound] | µM | 4

May I ask what IC50 has been recorded for CC1SC2=C(C(=O)C(=O)c3ccccc32)C1(C)C (stereo not shown) ?
2

Cool, now O=C1C(=O)c2ccccc2C2=C1C(c1ccccc1)CCS2 (stereo not shown)
8.8

Cool, now `CC1(C)CCSC2=C1C(=O)C(=O)c1ccccc12`
6

Cool, now CC1OC2=C(SC1C)c1ccccc1C(=O)C2=O (stereo not shown)
6.1

Cool, now CC1SC2=C(OC1(C)C)C(=O)C(=O)c1ccccc12 (stereo not shown)
13.1

Cool, now CC1CSC2=C(O1)C(=O)C(=O)c1ccccc12 (stereo not shown)
4.9

Cool, now CC1SC2=C(C(=O)C(=O)c3ccccc32)C1(c1ccccc1)c1ccccc1 (stereo not shown)
7.8

Cool, now `CC1(C)CCC2=C(S1)c1ccccc1C(=O)C2=O`
7.5

Cool, now CC1(C)CCC2=C(O1)c1ccccc1C(=O)C2=O [β-Lapachone, reference compound]
8.1
